Provide the reported cell viability of each item.
system: Mel-DCC-11-R; assay: cell viability relative to DMSO control (fraction of DMSO control); higher = less cytotoxic, active = 0.8 or less; conditions: 1 µM; 120 h; vemurafenib co-treatment 0 µM
Respond numerically, and do not add a unit to the figure.

Which cell viability value is on record for Cc1[nH]c2ccccc2c1CCNCc1ccc(/C=C/C(=O)NO)cc1 ?
0.0716

Recorded cell viability of CC[C@]1(O)C[C@H]2CN(CCc3c([nH]c4ccccc34)[C@@](C(=O)OC)(c3cc4c(cc3OC)N(C=O)[C@H]3[C@@](O)(C(=O)OC)[C@H](OC(C)=O)[C@]5(CC)C=CCN6CC[C@]43[C@@H]65)C2)C1.O=S(=O)(O)O [Vincristine sulfate] , please.
0.455

Sample O=S(=O)([O-])CCS.[Na+] — what was its cell viability?
1.11

Record request: cell viability value, item C=CC(=O)Nc1cccc(Nc2nc(Nc3ccc(N4CCN(C(C)=O)CC4)cc3OC)ncc2C(F)(F)F)c1
0.855

Please look up its cell viability: COc1ccc(/C=C\c2cc(OC)c(OC)c(OC)c2)cc1OP(=O)([O-])[O-].[Na+].[Na+] [Fosbretabulin Disodium]
0.57

Any idea what its cell viability is? The molecule is CC(C)C(=O)Nc1ccc([N+](=O)[O-])c(C(F)(F)F)c1 [Flutamide]
1.1

Look up cell viability: Nc1nc(=O)c2c([nH]1)NCC(CNc1ccc(C(=O)N[C@@H](CCC(=O)[O-])C(=O)[O-])cc1)N2C=O.[Ca+2] (stereo partly specified) [Calcium folinate]
1.68

What value of cell viability has been reported for the following molecule? CC(C)(C)c1nc(-c2cccc(NS(=O)(=O)c3c(F)cccc3F)c2F)c(-c2ccnc(N)n2)s1
1.03

Which cell viability value is on record for CCC1(O)C(=O)OCc2c1cc1n(c2=O)Cc2cc3cc(O)ccc3nc2-1 (stereo unspecified) [Hydroxy Camptothecine] ?
0.422

Fill blank: measured cell viability of the molecule Cl.N=c1ccn2c(n1)O[C@H]1[C@H](O)[C@@H](CO)O[C@H]12 [Cyclocytidine hydrochloride] is ____.
0.873

Find the recorded cell viability belonging to CCN(CC)C(=S)SSC(=S)N(CC)CC and report it.
0.442

State the recorded cell viability for this entry: O=c1cc(-c2ccc(O)cc2)oc2cc(O)cc(O)c12
0.972

Data request, read-out cell viability, for Nc1nc2[nH]nnc2c(=O)[nH]1
1.42

Could you share which cell viability value was measured for Oc1cc(O)cc(/C=C/c2ccc(O)c(O)c2)c1 ?
0.982

Need cell viability, item C=C[C@H]1[C@@H](O[C@@H]2O[C@H](CO)[C@@H](O)[C@H](O)[C@H]2O)OC=C2C(=O)OCC[C@]21O
0.976

Any idea what cell viability was measured for COc1cc2ncnc(Nc3ccc(F)c(Cl)c3)c2cc1NC(=O)/C=C/CN1CCCCC1 ?
1.07

These measurements were taken from the supplement of paper PMC12808144.
